- experimentDescription: Identifying Small Molecule Inhibitors of Pancreatic Cancer Stem Cells (Panc1, Spheroid) (AID 1259359);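 also: compound exposure lasted 48 h before reading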
- assayContext: Panc1 spheroid cancer stem cell viability; series mostly up to 46.1 µM
Records with an inconclusive call do not appear. Activity calls are given as the source filed them. Calls follow the shape of the dose curve; as a rule, active = well fitted cell-killing curve with a large enough effect; inconclusive = small, poorly fitted or top-dose-only effect, or effect the other way, or another doubt; inactive = no such curve, though single readings can be large or run the other way.
Form entry, call: pick from active, inactive

COCCn1c2c([n+](Cc3cnccn3)c1C)C(=O)c1ccccc1C2=O: inactive
CC(C)C[C@H](NC(=O)CNC(=O)c1cc(Cl)ccc1Cl)B(O)O: active
CC1=C(CO)C(=O)O[C@@H]([C@@H](C)[C@H]2CC[C@H]3[C@@H]4C[C@H]5O[C@]56[C@@H](O)C=CC(=O)[C@]6(C)[C@@H]4CC[C@]23C)C1: active
CC(C)c1ccc(Cn2ccc3c4c(N)nc(NC5CC5)nc4ccc32)cc1: active

Please state the recorded outcome for this compound: `Cc1cccc(C=NNc2cc(N3CCOCC3)nc(OCCc3ccccn3)n2)c1` active

Please state the recorded outcome for this compound: `COc1cc2c(Oc3ccc(-c4cnc(Nc5ccc(F)cc5)n(C)c4=O)cc3F)ccnc2cc1OCCCN1CCOCC1` active

Please state the recorded outcome for this compound: `COc1cc(=C2C=c3ccccc3=N2)[nH]c1=Cc1[nH]c(C)cc1C` active

Please state the recorded outcome for this compound: `CCOc1cc2ncc(C#N)c(Nc3ccc(F)c(Cl)c3)c2cc1NC(=O)C=CCN(C)C` active

Please state the recorded outcome for this compound: `COC(=O)c1ccc2c(C(=Nc3ccc(N(C)C(=O)CN4CCN(C)CC4)cc3)c3ccccc3)c(O)[nH]c2c1` active

Please state the recorded outcome for this compound: `CN1CC[C@@H](c2c(O)cc(O)c3c(=O)cc(-c4ccccc4Cl)oc23)[C@@H](O)C1` active
